The entries below are paired with their reported GI50.
System: RXF 631
Assay: NCI tumour cell line growth inhibition, 48 h
The source made the active and inactive calls. Rule as the data show it: active = GI50 up to about 1.1 µM and inactive = higher.

Example cases with answers are listed next.
COMPOUND | GI50
CN1C(=O)C(C)(C)NS1(=O)=O | > 100 µM (inactive)
CCN(CC)CCOc1ccc(CCc2cc(OC)c(OC)c(OC)c2)cc1 | 53.5 µM (inactive)
CN(Cc1ccccc1)C(=O)c1ccccc1C(=O)O | > 100 µM (inactive)
c1cncc(C2N3CCCCC3[C@@H]3c4[nH]c5ccccc5c4CCN23)c1 (stereo partly drawn) | > 100 µM (inactive)
O=C(Nc1nc2ncn(CCNCc3ccccc3)c2c(=O)[nH]1)c1ccccc1 | 41.5 µM (inactive)
CCCOc1ccc(/C=C\c2cc(OC)c(OC)c(OC)c2)cc1 | 37.1 µM (inactive)
CCN(CC)C(c1ccc(N(C)C)cc1)C(c1ccc(N(C)C)cc1)N(CC)CC (stereo not drawn) | > 72.9 µM (inactive)
CC(=O)N(/N=C\c1ccc([N+](=O)[O-])cc1)c1ccccc1 | > 100 µM (inactive)

### Prompt # return recorded GI50 for entry Cc1ccc(Sc2ccccc2N)cc1
### Response 29 µM (inactive)

### Prompt # return recorded GI50 for entry COc1ccc2oc3c(OC)c(OC)c(OC)cc3c(=O)c2c1
### Response > 100 µM (inactive)

### Prompt # return recorded GI50 for entry S=c1sc2cscc2s1
### Response 24.9 µM (inactive)

### Prompt # return recorded GI50 for entry CCCN(CCCC(NC(C)=O)C(=O)NCc1ccccc1)C(=O)N(CCCl)N=O (stereo not drawn)
### Response 17.4 µM (inactive)

### Prompt # return recorded GI50 for entry CC12CC3(C)CC(C)(C1)CC(N=[N+]=[N-])(C2)C3
### Response > 100 µM (inactive)

### Prompt # return recorded GI50 for entry O=C1C(c2ccccc2)=C(c2ccccc2)C(c2ccc(Sc3ccc(C4=C(c5ccccc5)C(=O)C(c5ccccc5)=C4c4ccccc4)cc3)cc2)=C1c1ccccc1
### Response > 100 µM (inactive)

### Prompt # return recorded GI50 for entry Cc1ccccc1NC(=O)C(=O)C(C(=O)c1ccccc1F)C1OC(=O)c2ccccc21 (stereo not drawn)
### Response 26.9 µM (inactive)

### Prompt # return recorded GI50 for entry COc1cc(/C=C/c2ccncc2)cc(OC)c1OC
### Response 31.6 µM (inactive)

### Prompt # return recorded GI50 for entry CCOC(=O)C1=C(Nc2ccc(Cl)c(Cl)c2)OC/C1=N\NS(=O)(=O)c1ccc(C)cc1
### Response 29.6 µM (inactive)

### Prompt # return recorded GI50 for entry CCNC(=O)O/N=C1\CCC2[C@@H]3CC=C4C[C@@H](OC(=O)NCC)CC[C@]4(C)C3CC[C@]12C (stereo partly drawn)
### Response 4.26 µM (inactive)

Source listed as ChEMBL document CHEMBL1201862.
